Quick reference for median fluorescence intensity, fold over isotype control among some binders
- STUDY_SYSTEM: T1, HKU1 full length Spike (human coronavirus HKU1, UniProt Q5MQD0 13-1276)
- T1 sequence: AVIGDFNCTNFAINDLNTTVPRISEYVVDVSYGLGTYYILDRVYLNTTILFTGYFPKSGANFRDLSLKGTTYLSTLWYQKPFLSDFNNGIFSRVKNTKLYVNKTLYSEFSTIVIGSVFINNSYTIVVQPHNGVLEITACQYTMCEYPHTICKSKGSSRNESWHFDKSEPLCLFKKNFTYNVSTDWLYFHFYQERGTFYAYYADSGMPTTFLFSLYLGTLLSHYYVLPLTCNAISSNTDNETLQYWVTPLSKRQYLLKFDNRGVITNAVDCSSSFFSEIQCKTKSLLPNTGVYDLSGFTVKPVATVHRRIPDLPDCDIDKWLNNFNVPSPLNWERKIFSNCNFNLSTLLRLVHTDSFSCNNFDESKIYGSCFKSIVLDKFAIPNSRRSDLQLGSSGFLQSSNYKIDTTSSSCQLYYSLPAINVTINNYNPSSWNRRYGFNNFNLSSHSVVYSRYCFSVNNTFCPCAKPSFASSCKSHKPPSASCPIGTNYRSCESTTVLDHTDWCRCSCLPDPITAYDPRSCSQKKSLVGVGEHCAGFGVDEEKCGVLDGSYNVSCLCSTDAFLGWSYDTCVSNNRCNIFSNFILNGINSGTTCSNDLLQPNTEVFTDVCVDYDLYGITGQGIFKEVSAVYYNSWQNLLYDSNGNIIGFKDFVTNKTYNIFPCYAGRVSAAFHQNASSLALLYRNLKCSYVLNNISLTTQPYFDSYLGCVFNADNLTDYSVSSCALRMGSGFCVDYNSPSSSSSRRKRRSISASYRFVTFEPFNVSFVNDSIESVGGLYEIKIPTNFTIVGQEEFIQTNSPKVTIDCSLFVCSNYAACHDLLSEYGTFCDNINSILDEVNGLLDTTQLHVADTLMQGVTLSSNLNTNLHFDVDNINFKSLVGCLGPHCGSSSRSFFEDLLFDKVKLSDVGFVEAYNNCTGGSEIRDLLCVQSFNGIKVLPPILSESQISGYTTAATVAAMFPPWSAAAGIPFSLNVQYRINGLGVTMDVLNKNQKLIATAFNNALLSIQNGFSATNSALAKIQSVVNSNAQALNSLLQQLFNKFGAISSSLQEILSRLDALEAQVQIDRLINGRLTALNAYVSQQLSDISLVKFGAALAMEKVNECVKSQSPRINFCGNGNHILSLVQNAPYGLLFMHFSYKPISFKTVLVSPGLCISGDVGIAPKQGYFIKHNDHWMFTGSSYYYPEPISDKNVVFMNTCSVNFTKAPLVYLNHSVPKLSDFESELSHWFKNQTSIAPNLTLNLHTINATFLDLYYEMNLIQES
READOUT_LABEL: median fluorescence intensity, fold over isotype control (fold over isotype)

- BINDER: "mAb 1036 (antibody, V domains shown) VH: QVQLVQSGAEVKKPGSSVKVSCKASGGTLSSYTISWVRQAPGQGLEWMGRIIPILGIADYAQKFQGRVTITADKSTTTAYMDLSSLGSEDTALYYCASAPKDWSSGFDYYYGMDVWGQGTMVTVSS VL: DIVMTQTPLSLSVTPGQPASISCKSSQSLLNSDGKTYLYWYLQKAGQPPQLLIYEVSNRFSGVPERFSGSGSGTDFTLKISRVEAEDVGVYYCMQSVQLPPYTFGQGTKLEITR"
  OBSERVED_VALUE: 0.94
- BINDER: "mAb 1444 (antibody, V domains shown) VH: QVQLVQSGAEVKKPGASVKVSCKASGYTFTAYYMHWVRQAPGQGLEWMGWINPNSDDTNYAQKFQGRVTMTRDTSISTAYMELSRLRSDDTAVYYCAREEGVFTIGDRYFDLWGRGTLVSVSS VL: QTVVTQEPSFSVSPGGTVTLTCGLSSGSVSTSYYPSWYQQTPGQAPRTLIYNTNTRSSGVPDRFSGSILGNKAALTITGAQADDESDYYCVLYMGSGIWVFGGGTKLTVLG"
  OBSERVED_VALUE: 0.98
- BINDER: "mAb 1075 (antibody, V domains shown) VH: QVQLVQSGAEVKKPGASVKVSCKVSGYTLIELSMHWVRQAPGKGLEWMGGFDPEDGETIYAQKFQGRVTMTEDTSTDTAYMELSSLRSEDTAVYYCATEWAYYGSGSYLGYWGQGTLVTVSS VL: EIVMTQSPATLSVSPGERATLSCRASQSVSSNLAWFQQKPGQAPRLLIYGASTRVTVIPARFSGSGSGTEFTLTISSLQSEDFAVYYCQQYNNWPRTFGQGTKVEIKR"
  OBSERVED_VALUE: 0.93
